The values you see were collected from the supplement of paper PMC10567573.

B1: ZBTB22 (parent)
chain: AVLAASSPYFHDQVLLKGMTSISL

variants of: B1; experiment: protein stability index of a GFP-peptide fusion (GPS, HEK-293T) (PSI 1-6); higher = more stable; settings: c terminus: a fixed tail appended;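 also: lentivirally expressed fusions sorted by FACS into six bins by GFP to DsRed ratio, PSI derived from sequencing read proportions per bin multiplied by bin number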
Consider the following variants and their measured protein stability index readings.
measurement_kind: protein stability index

- AVLAASSPYWHDQVLLKGMTSISL: 2.24
- AVLAASSPYSHDQVLLKGMTSISL: 1.87
- AVLAASSRYFHDQVLLKGMTSISL: 4.82
- AVLAASSPYFHDQVALKGMTSISL: 1.66
- AVLPASSPYFHDQVLLKGMTSISL: 1.05
- AVLAASSPYFHDQVMLKGMTSISL: 1.94
- AVLAASSPYFHDQVLLKGMTSIDL: 1.3
- AVLAASSPYFHDQVLLKGMTSKSL: 2.13
- AVLAASSPYFHDQVLLKGMLSISL: 3.1
- AVLAASSPYFHRQVLLKGMTSISL: 3.23
- AVLAASSPYFHDQVLLKGMTSQSL: 1.09
